pKd values for the binders below.
Molecular target: T1, sRAGE (V-C1-C2) lot LP08062 (human, UniProt Q15109 23-331, limits assumed)
T1 construct: domain: V-C1-C2; also called Human RAGE; LP08062 (Rage)
T1 sequence (Q15109 23-331 limits assumed): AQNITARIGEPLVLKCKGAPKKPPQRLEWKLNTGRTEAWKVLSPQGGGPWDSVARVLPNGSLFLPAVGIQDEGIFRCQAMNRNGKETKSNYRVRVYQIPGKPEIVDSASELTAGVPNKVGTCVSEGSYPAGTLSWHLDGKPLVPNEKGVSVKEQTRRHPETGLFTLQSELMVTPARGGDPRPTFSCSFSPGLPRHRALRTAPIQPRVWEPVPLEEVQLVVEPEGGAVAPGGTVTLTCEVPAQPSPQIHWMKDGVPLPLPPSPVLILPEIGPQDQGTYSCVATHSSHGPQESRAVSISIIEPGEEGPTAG
Experiment: SPR (Biacore), mAb captured on anti-mouse Fc, sRAGE 15 nM, Langmuir 1:1
Protocol: The assay is based on a capture assay using immobilized anti-mouse Fc IgG on CM5 chip. For immobilization of anti-Fc antibody HBS-EP was used as running buffer. Standard amine coupling to a CM5 chip was carried out at a contact time of 11 min and a flow rate of 10 μl/min. 10 mM Sodium Acetate pH 5.0 was used as immobilization buffer. The protein concentration (anti-mouse Fc, Biacore BR-1008-38) was 100 μg/mL. […]
Reminder that pKd means the negative base-10 logarithm of the concentration expressed in mol/L.

[[record]]
binder = "130 RAGE-1 (antibody, V domains shown, Anti-RAGE monoclonal antibody from a hybridoma, captured by anti-mouse Fc; also called Protein 130 RAGE-1) VH: EVQLVESGGGLVKPGGSLKLSCAASGFTFSSYVMSWVRQSPEKRLEWVAEISSGGSYTYYPDTVTGRFTISRDNDKNTLYLEMSSLRSEDTAMYYCARPPYGKDAMDYWGQGTSVTVSS VL: QIVLTQSPAIMSASPGEKVTMTCSASSSVSYMHWYQQKSGTSPKRWISDTSKLASGVPARFSGSGSGTSYSLTISSMEAEDAATYYCQQWSSNPPTFGGGTKLEIK"
quantity = "pKd"
numeric_value = 9.63

[[record]]
binder = "184 RAGE-1 (antibody, V domains shown, Anti-RAGE monoclonal antibody from a hybridoma, captured by anti-mouse Fc; also called Protein 184 RAGE-1) VH: QVQLQQSGAELVRPGTSVKVSCKASGYAFTNYLIEWVKQRPGQGLEWIGMINPGSGGTNYNEKFKGKATLTADKSSSTAYMQLSSLTSDDSAVYFCARGRGGHYRYFDVWGAGTTVTVSS VL: DIVLTQSPASLAVSLGQRATISCRASKSVSTSGYSYMHWYQQKPGQPPKLLIYLASHLESGVPARFSGSGSGTDFSLNIHPVEEEDAATYYCQHSRELPWTFGGGTKLEIK"
quantity = "pKd"
numeric_value = 9.23


Q: Any idea what its pKd is? The binder is 283 RAGE-1 (antibody, V domains shown, Anti-RAGE monoclonal antibody from a hybridoma, captured by anti-mouse Fc; also called Protein 283 RAGE-1) VH: QVQLQQSGAELVRPGTSVKVSCKASGYAFTNYLIEWVKQRPGQGLEWIGVINPGSGGTNYSERFKGKATLTADKSSSTAYMQLSSLTSDDSAVYFCASYRYDGGMDYWGQGTSVTVSS VL: QAVVTQESALTTSPGETVTLTCRSSTGAVTTSNYANWVQEKPDHLFTGLIRGTNNRAPGVPARFSGSLIGDKAALTITGAQTEDEAIYFCALWYSNHWVFGGGTKLTVL
Result: 9.43

Where these numbers come from: patent US20120282637A1
